- tested-system: hMAO‐A (Homo sapiens)
- Construct: purchased Sigma Aldrich M7316
- Sequence (P21397 whole entry): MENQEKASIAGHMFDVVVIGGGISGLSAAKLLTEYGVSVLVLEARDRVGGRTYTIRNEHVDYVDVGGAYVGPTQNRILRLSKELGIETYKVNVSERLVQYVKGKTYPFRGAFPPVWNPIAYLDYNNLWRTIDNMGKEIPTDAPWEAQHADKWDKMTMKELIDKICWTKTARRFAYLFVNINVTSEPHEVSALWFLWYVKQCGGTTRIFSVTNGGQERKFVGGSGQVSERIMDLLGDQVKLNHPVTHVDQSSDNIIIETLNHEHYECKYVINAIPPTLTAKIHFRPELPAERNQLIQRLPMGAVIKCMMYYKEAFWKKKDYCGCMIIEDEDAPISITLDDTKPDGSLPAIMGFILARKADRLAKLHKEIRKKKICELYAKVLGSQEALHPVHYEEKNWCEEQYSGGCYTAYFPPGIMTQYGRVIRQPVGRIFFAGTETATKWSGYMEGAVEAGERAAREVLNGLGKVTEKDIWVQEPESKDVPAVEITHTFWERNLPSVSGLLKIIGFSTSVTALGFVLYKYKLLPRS
- experiment-description: In vitro fluorometric MAO-A inhibition assay (tyramine substrate, horseradish peroxidase coupling)
- Format: biochemical
readout-label: IC50 (nM)
Answers are plain numbers, in nM.

Worked cases, answers included:
- smiles-input: "CCN(CC)c1ccc(/C=N/NC(=S)Nc2ccc(Br)cc2)c(OS(=O)(=O)c2ccc3ccccc3c2)c1"
  measured-value: 132
- smiles-input: "CCN(CC)c1ccc(/C=N/NC(=S)NC2CCCCC2)c(OS(=O)(=O)c2ccc3ccccc3c2)c1"
  measured-value: 145
- smiles-input: "CCN(CC)c1ccc(/C=N/NC(=S)Nc2ccccc2C)c(OS(=O)(=O)c2ccc3ccccc3c2)c1"
  measured-value: 143
- smiles-input: "CCN(CC)c1ccc(/C=N/NC(=S)NCc2ccccc2)c(OS(=O)(=O)c2ccc3ccccc3c2)c1"
  measured-value: 131

Hello, I would appreciate it if you could give IC50 for each entry below.
1. CCN(CC)c1ccc(/C=N/NC(=S)NC)c(OS(=O)(=O)c2ccc3ccccc3c2)c1
2. CCN(CC)c1ccc(/C=N/NC(=S)Nc2c(Cl)cccc2Cl)c(OS(=O)(=O)c2ccc3ccccc3c2)c1
3. CCN(CC)c1ccc(/C=N/NC(=S)Nc2ccc(F)cc2)c(OS(=O)(=O)c2ccc3ccccc3c2)c1

1. 132
2. 96.2
3. 112

* * *

- tested-system: BChE from equine serum (Equus caballus, UniProt P81908)
- Construct: C7512‐ BChE from equine serum; purchased Sigma Aldrich C7512; host or cells: equine serum
- Sequence (P81908 whole entry): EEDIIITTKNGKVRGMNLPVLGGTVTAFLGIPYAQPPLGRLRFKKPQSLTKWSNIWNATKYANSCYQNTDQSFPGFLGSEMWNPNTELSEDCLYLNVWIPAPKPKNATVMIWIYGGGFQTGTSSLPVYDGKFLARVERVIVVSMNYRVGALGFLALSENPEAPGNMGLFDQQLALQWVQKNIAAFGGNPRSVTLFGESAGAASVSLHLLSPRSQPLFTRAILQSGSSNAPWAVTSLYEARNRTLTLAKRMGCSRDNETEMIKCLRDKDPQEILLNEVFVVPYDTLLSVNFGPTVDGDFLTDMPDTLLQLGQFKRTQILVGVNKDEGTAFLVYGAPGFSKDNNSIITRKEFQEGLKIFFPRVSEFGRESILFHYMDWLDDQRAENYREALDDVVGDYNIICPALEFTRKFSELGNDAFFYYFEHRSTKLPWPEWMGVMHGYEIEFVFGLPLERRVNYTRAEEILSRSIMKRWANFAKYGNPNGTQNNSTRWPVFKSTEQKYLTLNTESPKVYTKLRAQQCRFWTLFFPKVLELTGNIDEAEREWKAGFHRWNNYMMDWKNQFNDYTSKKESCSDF
- experiment-description: biochemical
- assay-context: read-out: K i (nM) BChE
Exercise: for every item that follows, state its recorded Ki.
Answers are plain numbers, in nM.

A selection of reference data follows.
- smiles-input: "CCN(CC)c1ccc(C=NNC(=S)NCCCSC)c(OS(=O)(=O)c2ccc3ccccc3c2)c1"
  Ki / nM: 258
- smiles-input: "CCN(CC)c1ccc(/C=N/NC(=S)NC2CCCCC2)c(OS(=O)(=O)c2ccc3ccccc3c2)c1"
  Ki / nM: 226

Read the next record carefully.
Per the record, `CCN(CC)c1ccc(/C=N/NC(=S)Nc2ccc(Br)cc2)c(OS(=O)(=O)c2ccc3ccccc3c2)c1` has Ki of 191

* * *

What Ki was measured for each of the following?
- tested-system: AChE from Electrophorus electricus (electric eel) (Electrophorus electricus, UniProt O42275)
- Construct: purchased Sigma Aldrich C3389
- Sequence (O42275 24-633): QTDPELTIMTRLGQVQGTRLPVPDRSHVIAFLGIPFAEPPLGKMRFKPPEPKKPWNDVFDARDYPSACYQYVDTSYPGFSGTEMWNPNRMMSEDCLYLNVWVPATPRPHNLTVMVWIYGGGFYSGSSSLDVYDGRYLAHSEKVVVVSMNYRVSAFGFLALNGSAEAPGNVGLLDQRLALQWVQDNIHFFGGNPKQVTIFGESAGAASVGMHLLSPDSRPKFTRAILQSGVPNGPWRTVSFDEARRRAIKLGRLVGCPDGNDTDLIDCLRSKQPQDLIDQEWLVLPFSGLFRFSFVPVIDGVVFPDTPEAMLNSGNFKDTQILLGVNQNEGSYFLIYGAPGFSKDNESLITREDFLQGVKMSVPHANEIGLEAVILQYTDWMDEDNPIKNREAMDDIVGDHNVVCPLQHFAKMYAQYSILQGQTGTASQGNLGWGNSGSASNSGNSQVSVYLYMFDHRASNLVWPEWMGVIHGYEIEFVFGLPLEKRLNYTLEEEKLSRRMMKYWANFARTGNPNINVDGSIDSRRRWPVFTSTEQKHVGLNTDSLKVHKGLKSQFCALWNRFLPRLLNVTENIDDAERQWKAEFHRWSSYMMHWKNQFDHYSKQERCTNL
- experiment-description: biochemical
- assay-context: read-out: K i (nM) AChE
Value and unit, in that order.

Example molecules with recorded Ki:
- molecule: "CCN(CC)c1ccc(/C=N/NC(=S)Nc2cccc(OC)c2)c(OS(=O)(=O)c2ccc3ccccc3c2)c1 [Compound 5k]"
  measured-value: "95.8 nM"
- molecule: "CCN(CC)c1ccc(/C=N/NC(=S)Nc2ccc(F)cc2)c(OS(=O)(=O)c2ccc3ccccc3c2)c1 [Compound 5l]"
  measured-value: "27.4 nM"
- molecule: "CCN(CC)c1ccc(/C=N/NC(=S)NCCc2ccccc2)c(OS(=O)(=O)c2ccc3ccccc3c2)c1 [Compound 5t]"
  measured-value: "48.3 nM"

Quick batch: Ki for everything below.
1. CCN(CC)c1ccc(/C=N/NC(=S)Nc2cccc([N+](=O)[O-])c2)c(OS(=O)(=O)c2ccc3ccccc3c2)c1 [Compound 5o]
2. CCN(CC)c1ccc(/C=N/NC(=S)Nc2c(Cl)cccc2Cl)c(OS(=O)(=O)c2ccc3ccccc3c2)c1 [Compound 5u]
3. CCN(CC)c1ccc(/C=N/NC(=S)Nc2cccc(Cl)c2Cl)c(OS(=O)(=O)c2ccc3ccccc3c2)c1 [Compound 5a]

1. 14.2 nM
2. 9.82 nM
3. 11.4 nM

* * *

- tested-system: BChE from equine serum (Equus caballus)
- Construct: C7512‐ BChE from equine serum; purchased Sigma Aldrich C7512; host or cells: equine serum
- experiment-description: biochemical
- assay-context: read-out: K i (nM) BChE
Can you tell me Ki for the items I'm about to list?
One number for each entry, in nM.

Worked cases, Ki given:
- smiles-input: "CCN(CC)c1ccc(/C=N/NC(=S)Nc2cccc([N+](=O)[O-])c2)c(OS(=O)(=O)c2ccc3ccccc3c2)c1"
  Ki (nM): 160
- smiles-input: "CCN(CC)c1ccc(/C=N/NC(N)=S)c(OS(=O)(=O)c2ccc3ccccc3c2)c1"
  Ki (nM): 270
- smiles-input: "CCN(CC)c1ccc(/C=N/NC(=S)Nc2ccccc2)c(OS(=O)(=O)c2ccc3ccccc3c2)c1"
  Ki (nM): 183
- smiles-input: "CCN(CC)c1ccc(/C=N/NC(=S)Nc2ccc(OC)cc2)c(OS(=O)(=O)c2ccc3ccccc3c2)c1"
  Ki (nM): 235
- smiles-input: "CCN(CC)c1ccc(/C=N/NC(=S)NC)c(OS(=O)(=O)c2ccc3ccccc3c2)c1"
  Ki (nM): 193
- smiles-input: "CCN(CC)c1ccc(/C=N/NC(=S)Nc2cccc(Cl)c2Cl)c(OS(=O)(=O)c2ccc3ccccc3c2)c1"
  Ki (nM): 101

# context switch: different compound, same Ki
Reported Ki ( `CCN(CC)c1ccc(/C=N/NC(=S)NCc2ccc(Cl)cc2)c(OS(=O)(=O)c2ccc3ccccc3c2)c1` ) = 183

* * *

- tested-system: AChE from Electrophorus electricus (electric eel) (Electrophorus electricus, UniProt O42275)
- Construct: purchased Sigma Aldrich C3389
- experiment-description: biochemical
- assay-context: AChI substrate, DTNB, 412 nm, Tris/HCl pH 8.0
readout-label: IC50
I'd appreciate it if you wrote the number followed by its unit.

Consider the following items and state reported IC50 for each.
1. CCN(CC)c1ccc(/C=N/NC(=S)Nc2cccc([N+](=O)[O-])c2)c(OS(=O)(=O)c2ccc3ccccc3c2)c1
2. CCN(CC)c1ccc(/C=N/NC(=S)NC)c(OS(=O)(=O)c2ccc3ccccc3c2)c1
3. CCN(CC)c1ccc(/C=N/NC(=S)Nc2cccc(OC)c2)c(OS(=O)(=O)c2ccc3ccccc3c2)c1

["18.9 nM", "38.5 nM", "116 nM"]

// each listed compound needs a value for IC50
1. CCN(CC)c1ccc(/C=N/NC(=S)NCc2ccccc2)c(OS(=O)(=O)c2ccc3ccccc3c2)c1
2. CCN(CC)c1ccc(/C=N/NC(=S)Nc2ccccc2)c(OS(=O)(=O)c2ccc3ccccc3c2)c1
3. CCN(CC)c1ccc(/C=N/NC(=S)Nc2ccc(OC)cc2)c(OS(=O)(=O)c2ccc3ccccc3c2)c1
4. CCN(CC)c1ccc(/C=N/NC(=S)Nc2c(Cl)cccc2Cl)c(OS(=O)(=O)c2ccc3ccccc3c2)c1

1. 71.4 nM
2. 38.4 nM
3. 39.4 nM
4. 12.9 nM

* * *

- tested-system: BChE from equine serum (Equus caballus, UniProt P81908)
- Construct: C7512‐ BChE from equine serum; purchased Sigma Aldrich C7512; host or cells: equine serum
- experiment-description: biochemical
- assay-context: BChI substrate, DTNB, 412 nm, Tris/HCl pH 8.0
Rule for this label: Condition met means IC50 is less than 200 nM; Condition not met means IC50 is at least 200 nM.

Use these answered entries as a reference point.
- molecule: "CCN(CC)c1ccc(/C=N/NC(=S)Nc2cccc(OC)c2)c(OS(=O)(=O)c2ccc3ccccc3c2)c1 [Compound 5k]"
  tested-system: "BChE from equine serum (Equus caballus, UniProt P81908)"
  class: "Condition not met"
- molecule: "CCN(CC)c1ccc(/C=N/NC(=S)Nc2ccccc2C(F)(F)F)c(OS(=O)(=O)c2ccc3ccccc3c2)c1 [Compound 5h]"
  tested-system: "BChE from equine serum (Equus caballus, UniProt P81908)"
  class: "Condition met"
- molecule: "CCN(CC)c1ccc(C=NNC(=S)NCCCSC)c(OS(=O)(=O)c2ccc3ccccc3c2)c1 [Compound 5g]"
  tested-system: "BChE from equine serum (Equus caballus, UniProt P81908)"
  class: "Condition not met"
- molecule: "CCN(CC)c1ccc(/C=N/NC(=S)NC2CCCCC2)c(OS(=O)(=O)c2ccc3ccccc3c2)c1 [Compound 5p]"
  tested-system: "BChE from equine serum (Equus caballus, UniProt P81908)"
  class: "Condition not met"

Dear reviewer, please state whether CCN(CC)c1ccc(/C=N/NC(=S)Nc2c(C)cccc2C)c(OS(=O)(=O)c2ccc3ccccc3c2)c1 [Compound 5j] has IC50 strictly beneath 200 nM. Condition not met

* * *

For each of the compounds below, state its IC50.
- tested-system: hMAO‐B (Homo sapiens)
- Construct: purchased Sigma Aldrich M7441
- Sequence (P27338 whole entry): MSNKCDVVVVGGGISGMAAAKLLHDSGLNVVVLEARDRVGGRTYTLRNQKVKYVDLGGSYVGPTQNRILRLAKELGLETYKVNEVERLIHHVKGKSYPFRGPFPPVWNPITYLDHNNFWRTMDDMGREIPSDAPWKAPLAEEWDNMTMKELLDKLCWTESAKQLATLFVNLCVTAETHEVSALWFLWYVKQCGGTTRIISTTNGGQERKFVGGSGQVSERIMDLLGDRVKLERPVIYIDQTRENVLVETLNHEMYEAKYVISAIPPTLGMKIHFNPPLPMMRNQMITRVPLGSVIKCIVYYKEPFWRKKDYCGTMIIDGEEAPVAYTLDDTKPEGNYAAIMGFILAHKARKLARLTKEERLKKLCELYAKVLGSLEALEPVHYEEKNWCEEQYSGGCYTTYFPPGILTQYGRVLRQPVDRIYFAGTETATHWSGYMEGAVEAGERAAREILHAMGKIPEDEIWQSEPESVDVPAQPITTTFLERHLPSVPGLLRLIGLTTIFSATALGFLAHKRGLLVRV
- experiment-description: In vitro fluorometric MAO-B inhibition assay (tyramine substrate, horseradish peroxidase coupling)
- Format: biochemical

- smiles-input: "CCN(CC)c1ccc(/C=N/NC(=S)NC2CCCCC2)c(OS(=O)(=O)c2ccc3ccccc3c2)c1"
  tested-system: "hMAO‐B (Homo sapiens)"
  IC50: "327 nM"

// batch mode: one IC50 value per listed entry
1. CCN(CC)c1ccc(/C=N/NC(=S)NCCc2ccccc2)c(OS(=O)(=O)c2ccc3ccccc3c2)c1
2. CCN(CC)c1ccc(/C=N/NC(=S)Nc2ccccc2C)c(OS(=O)(=O)c2ccc3ccccc3c2)c1
3. CCN(CC)c1ccc(/C=N/NC(=S)Nc2cccc(Cl)c2Cl)c(OS(=O)(=O)c2ccc3ccccc3c2)c1
4. CCN(CC)c1ccc(/C=N/NC(=S)NCc2ccccc2)c(OS(=O)(=O)c2ccc3ccccc3c2)c1
5. CCN(CC)c1ccc(/C=N/NC(=S)Nc2ccccc2C(F)(F)F)c(OS(=O)(=O)c2ccc3ccccc3c2)c1

["289 nM", "495 nM", "391 nM", "369 nM", "249 nM"]

The recorded IC50 with hMAO‐B (Homo sapiens) for `CCN(CC)c1ccc(/C=N/NC(=S)NCc2ccc(Cl)cc2)c(OS(=O)(=O)c2ccc3ccccc3c2)c1` was 308 nM
